Target: Methionine--tRNA ligase (Staphylococcus aureus)
Assay: Compound tested for inhibition of Staphylococcus aureus MRS (methionyl tRNA synthetase) in aminoacylation assay
// NB: equality with 10 nM counts as class 0; only IC50 strictly below is class 1

- Molecule: "Oc1cc(NCCCNC2CCNc3c(Br)cc(Br)cc32)nc2ccccc12 (stereo not drawn)"
  Class assignment: "class 1"
- Molecule: "CCOc1c(Br)cc([S+](C)[O-])cc1CNCCCNc1cc(O)c2ccccc2n1 (stereo not drawn)"
  Class assignment: "class 0"
- Molecule: "Oc1cc(NCCCNCc2ccc(Cl)c(Cl)c2)nc2ccccc12"
  Class assignment: "class 0"
- Molecule: "CCOc1c(C)cc(SC)cc1CNCCCNc1cc(O)c2ccccc2n1"
  Class assignment: "class 1"
- Molecule: "CCOc1c(CNCCCNc2cc(O)c3ccccc3n2)cc(I)cc1COC"
  Class assignment: "class 1"
- Molecule: "CCOc1c(CO)cc(I)cc1CNCCCNc1cc(O)c2ccccc2n1"
  Class assignment: "class 1"
- Molecule: "CCOc1c(CNCCCNc2cc(O)c3ccccc3n2)cc(I)cc1C(C)(C)C"
  Class assignment: "class 0"
- Molecule: "Oc1cc(NCCCNC2CCOc3c(I)cc(Cl)cc32)nc2ccccc12 (stereo not drawn)"
  Class assignment: "class 1"
- Molecule: "O=c1cc(NCCCNC2CCOc3c(Cl)cc(Cl)cc32)[nH]c2ccccc12 (stereo not drawn)"
  Class assignment: "class 1"
- Molecule: "Oc1cc(NCCCNC2CCOc3c(Cl)cc(I)cc32)nc2ccccc12 (stereo not drawn)"
  Class assignment: "class 0"
- Molecule: "Oc1cc(NCCCNC2CCNc3c(Cl)cc(Br)cc32)nc2ccccc12 (stereo not drawn)"
  Class assignment: "class 1"
- Molecule: "CCOc1c(C#N)cc(Br)cc1CNCCCNc1cc(O)c2ccccc2n1"
  Class assignment: "class 1"
- Molecule: "CCOc1c(I)cc(C)cc1CNCCCNc1cc(O)c2ccccc2n1"
  Class assignment: "class 1"
- Molecule: "CCOc1c(I)cc(CO)cc1CNCCCNc1cc(O)c2ccccc2n1"
  Class assignment: "class 0"
- Molecule: "CCOc1c(I)cc(OC)cc1CNCCCNc1cc(O)c2ccccc2n1"
  Class assignment: "class 1"
- Molecule: "CCOC(=O)c1cc(I)c(OCC)c(CNCCCNc2cc(O)c3ccccc3n2)c1"
  Class assignment: "class 0"
- Molecule: "Oc1cc(NCCCNC2COc3c(Cl)cc(Cl)cc32)nc2ccccc12 (stereo not drawn)"
  Class assignment: "class 1"
- Molecule: "CCOc1c(C)cc(C(F)(F)F)cc1CNCCCNc1cc(O)c2ccccc2n1"
  Class assignment: "class 1"
- Molecule: "Oc1cc(NCCCNC2CCOc3c(Br)cc(Br)cc32)nc2ccccc12 (stereo not drawn)"
  Class assignment: "class 1"
- Molecule: "Cc1cc(Br)cc2c1NCCC2NCCCNc1cc(O)c2ccccc2n1 (stereo not drawn)"
  Class assignment: "class 1"
- Molecule: "CCOC(=O)c1cc(I)cc(CNCCCNc2cc(O)c3ccccc3n2)c1OCC"
  Class assignment: "class 0"
- Molecule: "Oc1cc(NCCCNC2CCNc3c(Br)cc(Cl)cc32)nc2ccccc12 (stereo not drawn)"
  Class assignment: "class 1"
- Molecule: "C=CCc1cc(I)cc(CNCCCNc2cc(O)c3ccccc3n2)c1OCC"
  Class assignment: "class 1"

###

IC50 overview
Molecular target: Methionine--tRNA ligase (Staphylococcus aureus)
Assay: Compound tested for inhibition of Staphylococcus aureus MRS (methionyl tRNA synthetase) in aminoacylation assay

- Compound: "CCOc1c(CNCCCNc2cc(O)c3ccccc3n2)cc(Br)cc1OC"
  IC50: "13 nM"
- Compound: "CCOc1c(CNCCCNc2cc(O)c3ccccc3n2)cc(I)cc1OC"
  IC50: "12 nM"
- Compound: "Oc1cc(NCCCNC2CCCc3c(Cl)cc(Cl)cc32)nc2ccccc12 (stereo not given)"
  IC50: "3.8 nM"
- Compound: "CCc1cc(Br)cc2c1NCCC2NCCCNc1cc(O)c2ccccc2n1 (stereo not given)"
  IC50: "4.3 nM"
- Compound: "CCOc1c(C)cc(C#N)cc1CNCCCNc1cc(O)c2ccccc2n1"
  IC50: "3.9 nM"
- Compound: "CCOc1c(I)cc(COC)cc1CNCCCNc1cc(O)c2ccccc2n1"
  IC50: "17 nM"
- Compound: "Oc1cc(NCCCNC2CCc3c(Cl)cc(Cl)cc32)nc2ccccc12 (stereo not given)"
  IC50: "5.1 nM"
- Compound: "Oc1cc(NCCCNC2CCNc3c(Cl)cc(Cl)cc32)nc2ccccc12 (stereo not given)"
  IC50: "23 nM"
- Compound: "CCOc1c(C)cc(I)cc1CNCCCNc1cc(O)c2ccccc2n1"
  IC50: "3.2 nM"
- Compound: "CCc1cc(I)c2c(c1)C(NCCCNc1cc(O)c3ccccc3n1)CCN2 (stereo not given)"
  IC50: "12 nM"

###

Target: Methionine--tRNA ligase (Staphylococcus aureus)
Experiment: Compound tested for inhibition of Staphylococcus aureus MRS(methionyl tRNA synthetase) in aminoacylation assay

- Structure as smiles: "Oc1cc(NCCCNCc2cc(Br)cc(Br)c2)nc2ccccc12"
  System tested: "Methionine--tRNA ligase (Staphylococcus aureus)"
  IC50: "< 3 nM"
- Structure as smiles: "CCOc1c(I)cc(I)cc1CNCCCNc1cc(O)c2ccccc2n1"
  System tested: "Methionine--tRNA ligase (Staphylococcus aureus)"
  IC50: "< 3 nM"
- Structure as smiles: "Oc1cc(NCCCNCc2cc(Cl)cc(Cl)c2Cl)nc2ccccc12"
  System tested: "Methionine--tRNA ligase (Staphylococcus aureus)"
  IC50: "< 3 nM"

###

Molecular target: Methionine--tRNA ligase (Staphylococcus aureus)
Test: Compound tested for inhibition of Staphylococcus aureus MRS(methionyl tRNA synthetase) in aminoacylation assay
IC50 overview

- Structure as smiles: "CNc1c(Br)cc(Br)cc1CNCCCNc1cc(O)c2ccccc2n1"
  IC50: "11 nM"
- Structure as smiles: "Oc1cc(NCCCNCc2cc(Cl)ccc2Cl)nc2ccccc12"
  IC50: "9 nM"
- Structure as smiles: "CCOc1c(Br)cc(I)cc1CNCCCNc1cc(O)c2ccccc2n1"
  IC50: "8.8 nM"
- Structure as smiles: "Oc1cc(NCCCNCc2cccc(Cl)c2Cl)nc2ccccc12"
  IC50: "15 nM"

###

Target: Methionine--tRNA ligase (Staphylococcus aureus)
Assay: Compound tested for inhibition of Staphylococcus aureus MRS(methionyl tRNA synthetase) in aminoacylation assay
pIC50: −log10 of the molar value.
Rule: pIC50 of 7 or more gives yes; anything lower gives no.

- Structure as smiles: "CCOc1c(Cl)cc(Cl)cc1CNCCCNc1cc(O)c2ccccc2n1"
  System tested: "Methionine--tRNA ligase (Staphylococcus aureus)"
  Class assignment: "yes"
- Structure as smiles: "Nc1c(Br)cc(Br)cc1CNCCCNc1cc(O)c2ccccc2n1"
  System tested: "Methionine--tRNA ligase (Staphylococcus aureus)"
  Class assignment: "yes"
- Structure as smiles: "Oc1cc(NCCCNCc2cc(Br)cc(Br)c2OCC(F)(F)F)nc2ccccc12"
  System tested: "Methionine--tRNA ligase (Staphylococcus aureus)"
  Class assignment: "yes"
- Structure as smiles: "CCOc1c(Br)cc(Br)cc1CNCCCNc1cc(O)c2ccccc2n1"
  System tested: "Methionine--tRNA ligase (Staphylococcus aureus)"
  Class assignment: "yes"
- Structure as smiles: "Oc1cc(NCCCNCc2cc(Cl)cc(Cl)c2)nc2ccccc12"
  System tested: "Methionine--tRNA ligase (Staphylococcus aureus)"
  Class assignment: "yes"
- Structure as smiles: "Oc1cc(NCCCSCc2ccc(Cl)c(Cl)c2)nc2ccccc12"
  System tested: "Methionine--tRNA ligase (Staphylococcus aureus)"
  Class assignment: "no"
- Structure as smiles: "Oc1cc(NCCCNCc2ccccc2)nc2ccccc12"
  System tested: "Methionine--tRNA ligase (Staphylococcus aureus)"
  Class assignment: "no"
- Structure as smiles: "Oc1cc(NCCCOCc2ccc(Cl)c(Cl)c2)nc2ccccc12"
  System tested: "Methionine--tRNA ligase (Staphylococcus aureus)"
  Class assignment: "yes"
- Structure as smiles: "C=CCOc1c(Cl)cc(Cl)cc1CNCCCNc1cc(O)c2ccccc2n1"
  System tested: "Methionine--tRNA ligase (Staphylococcus aureus)"
  Class assignment: "yes"
